molecular target: human RXFP1 (Homo sapiens); experiment: RXFP1 Hu cAMP (Test A); assay type: cell-based; design: expressed in transfected cells; host or cells: Jump-In T-REx CHO-K1 cells (ThermoFisher), induced with 10 ng/ml doxycycline for 24 h; settings: RXFP1 Hu cAMP
Sequence (Q9HBX9 whole entry): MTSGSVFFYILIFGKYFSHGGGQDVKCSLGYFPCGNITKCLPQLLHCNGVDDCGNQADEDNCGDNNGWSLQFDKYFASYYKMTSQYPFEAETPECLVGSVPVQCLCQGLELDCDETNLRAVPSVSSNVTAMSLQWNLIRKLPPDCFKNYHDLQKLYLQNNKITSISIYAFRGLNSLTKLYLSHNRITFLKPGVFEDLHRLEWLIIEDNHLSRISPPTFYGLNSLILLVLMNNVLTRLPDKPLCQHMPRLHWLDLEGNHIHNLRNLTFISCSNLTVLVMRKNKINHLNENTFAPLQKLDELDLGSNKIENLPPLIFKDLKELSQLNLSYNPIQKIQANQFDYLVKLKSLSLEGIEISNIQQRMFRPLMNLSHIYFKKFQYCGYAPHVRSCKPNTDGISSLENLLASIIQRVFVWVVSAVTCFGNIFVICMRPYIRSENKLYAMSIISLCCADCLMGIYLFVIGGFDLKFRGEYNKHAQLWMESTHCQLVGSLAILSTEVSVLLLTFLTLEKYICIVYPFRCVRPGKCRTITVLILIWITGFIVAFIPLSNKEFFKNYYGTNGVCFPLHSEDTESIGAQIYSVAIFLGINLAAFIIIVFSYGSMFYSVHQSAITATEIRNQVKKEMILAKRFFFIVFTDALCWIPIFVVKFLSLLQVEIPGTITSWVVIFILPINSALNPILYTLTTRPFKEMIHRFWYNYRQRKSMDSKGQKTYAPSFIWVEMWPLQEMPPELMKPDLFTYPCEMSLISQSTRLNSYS
So I've got a bunch of compounds here, and I need their Test A Sinf values.
Please give a number only; it is taken to be in %.

Task: Kindly state the measured Test A Sinf obtained for COc1cc(C#N)c(O[C@H]2CC[C@@](C)(C(=O)O)CC2)cc1C(=O)N[C@@H]1[C@H]2CC[C@H](C2)[C@@H]1C(=O)NCC1(C)CC1 [Example 98] with human RXFP1 (Homo sapiens).
Result: 133

Task: Kindly state the measured Test A Sinf obtained for COc1cc(C#N)c(O[C@H]2CC[C@@](C)(C(=O)O)CC2)cc1C(=O)N[C@@H]1[C@H]2CC[C@H](C2)[C@@H]1C(=O)NC1(C2CC2)CC1 [Example 112] with human RXFP1 (Homo sapiens).
Result: 95

Task: Kindly state the measured Test A Sinf obtained for COc1cc(F)c(-c2ccc(OC(C)(C)C(=O)O)cc2)cc1C(=O)N[C@@H]1[C@H]2CC[C@H](C2)[C@@H]1C(=O)Nc1cccc(S(=O)(=O)C(F)(F)F)c1 [Example 256] with human RXFP1 (Homo sapiens).
Result: 99

Task: Kindly state the measured Test A Sinf obtained for COc1cc(F)c(O[C@H]2CC[C@@](C)(C(=O)O)CC2)cc1C(=O)N[C@@H]1CCC[C@@H]1C(=O)N[C@H](C)C(C)C [Example 60] with human RXFP1 (Homo sapiens).
Result: 105

Task: Kindly state the measured Test A Sinf obtained for COc1cc(F)c(O[C@H]2C[C@H](C(=O)O)C2)cc1C(=O)NC1[C@H]2CC[C@H](C2)[C@@H]1C(=O)Nc1cccc(S(=O)(=O)C(F)(F)F)c1 (stereo partly shown) [Example 443] with human RXFP1 (Homo sapiens).
Result: 101

Task: Kindly state the measured Test A Sinf obtained for O=C(N[C@@H]1[C@H]2CC[C@H](C2)[C@@H]1C(=O)Nc1cccc(S(=O)(=O)C(F)(F)F)c1)c1cc(O[C@H]2CC[C@@H](C(=O)O)CC2)c(F)cc1F [Example 430] with human RXFP1 (Homo sapiens).
Result: 101

Task: Kindly state the measured Test A Sinf obtained for COc1cc(F)c(OC2CCC(C)(CC(=O)O)CC2)cc1C(=O)NC1C2CCC(C2)C1C(=O)NCC1(C)CCC1 (stereo not shown) [Example 476] with human RXFP1 (Homo sapiens).
Result: 81

Task: Kindly state the measured Test A Sinf obtained for COc1cc(F)c(OCc2cccc(C(C)(C)C(=O)O)c2)cc1C(=O)N[C@H]1[C@@H](C(=O)Nc2cccc(S(=O)(=O)C(F)(F)F)c2)[C@@H]2C=C[C@H]1C2 (racemic) [Example 454] with human RXFP1 (Homo sapiens).
Result: 76

Task: Kindly state the measured Test A Sinf obtained for COc1cc(F)c(-c2ccc(C(=O)O)cc2)cc1C(=O)N[C@H]1[C@@H](C(=O)Nc2cccc(S(=O)(=O)C(F)(F)F)c2)[C@@H]2C=C[C@H]1C2 (single isomer, unassigned) [Example 552] with human RXFP1 (Homo sapiens).
Result: 98

Task: Kindly state the measured Test A Sinf obtained for COc1cc(F)c(O[C@H]2CC[C@@](CO)(C(=O)O)CC2)cc1C(=O)NC1C2CCC(O2)C1C(=O)NCC1(C)CCC1 (single isomer, unassigned) [Example 532] with human RXFP1 (Homo sapiens).
Result: 104

Task: Kindly state the measured Test A Sinf obtained for COc1cc(C#N)c(O[C@H]2CC[C@@](C)(C(=O)O)CC2)cc1C(=O)N[C@@H]1C2CCC(CC2)[C@@H]1C(=O)NCC1(C)CCC1 (racemic) [Example 468] with human RXFP1 (Homo sapiens).
Result: 93

Task: Kindly state the measured Test A Sinf obtained for COc1cc(F)c(Cc2cn[nH]c2)cc1C(=O)N[C@@H]1[C@H]2CC[C@H](C2)[C@@H]1C(=O)Nc1cccc(S(=O)(=O)C(F)(F)F)c1 [Example 219] with human RXFP1 (Homo sapiens).
Result: 113

Task: Kindly state the measured Test A Sinf obtained for COc1cc(F)c(O[C@H]2CC[C@@](C)(C(=O)O)CC2)cc1C(=O)N[C@@H]1[C@H]2CC[C@H](C2)[C@@H]1C(=O)NC(C(C)C)C(C)C [Example 40] with human RXFP1 (Homo sapiens).
Result: 97

Task: Kindly state the measured Test A Sinf obtained for COc1cc(F)c(O[C@H]2CC[C@@](C)(C(=O)O)CC2)cc1C(=O)N[C@@H]1CCCO[C@@H]1C(=O)Nc1cccc(S(=O)(=O)C(F)(F)F)c1 [Example 357] with human RXFP1 (Homo sapiens).
Result: 101

Task: Kindly state the measured Test A Sinf obtained for COc1cc(F)c(O[C@H]2CC[C@@](C)(C(=O)O)CC2)cc1C(=O)N[C@@H]1[C@H]2CC[C@H](C2)[C@@H]1C(=O)N[C@@H]1CCN(S(=O)(=O)C(F)(F)F)C1 [Example 605] with human RXFP1 (Homo sapiens).
Result: 106

Task: Kindly state the measured Test A Sinf obtained for COc1cc(F)c(O[C@H]2CC[C@@](C)(C(=O)O)CC2)cc1C(=O)N[C@@H]1C[C@H](OC)C[C@@H]1C(=O)Nc1cccc(S(=O)(=O)C(F)(F)F)c1 (stereo in doubt) [Example 335] with human RXFP1 (Homo sapiens).
Result: 104

Task: Kindly state the measured Test A Sinf obtained for COc1cc(C#N)c(O[C@H]2CC[C@@](C)(C(=O)O)CC2)cc1C(=O)N[C@@H]1[C@H]2CC[C@H](C2)[C@@H]1C(=O)NC[C@H](C)c1ccccc1 [Example 118] with human RXFP1 (Homo sapiens).
Result: 99

Task: Kindly state the measured Test A Sinf obtained for COc1cc(F)c(-c2ccc(-c3nn[nH]n3)cc2)cc1C(=O)N[C@@H]1[C@H]2CC[C@H](C2)[C@@H]1C(=O)Nc1cccc(S(=O)(=O)C(F)(F)F)c1 [Example 325] with human RXFP1 (Homo sapiens).
Result: 109

Task: Kindly state the measured Test A Sinf obtained for COc1cc(F)c(O[C@H]2CC[C@@](C)(C(=O)O)CC2)cc1C(=O)N[C@@H]1CCC[C@@H]1C(=O)NCC(C)(C)C [Example 57] with human RXFP1 (Homo sapiens).
Result: 99

Task: Kindly state the measured Test A Sinf obtained for COc1cc(F)c(O[C@H]2CC[C@@H](C(=O)O)CC2)cc1C(=O)N[C@@H]1[C@H]2CC[C@H](C2)[C@@H]1C(=O)Nc1cccc(C2CC2)c1 [Example 190] with human RXFP1 (Homo sapiens).
Result: 110

Task: Kindly state the measured Test A Sinf obtained for COc1cc(F)c(-c2nnc(CCC(=O)O)s2)cc1C(=O)N[C@H]1C(C(=O)Nc2cccc(S(=O)(=O)C(F)(F)F)c2)[C@@H]2CC[C@H]1C2 (stereo partly shown) [Example 322] with human RXFP1 (Homo sapiens).
Result: 107

Task: Kindly state the measured Test A Sinf obtained for COc1cc(F)c(O[C@H]2CC[C@@](C)(C(=O)O)CC2)cc1C(=O)N[C@@H]1[C@H]2CC[C@H](C2)[C@@H]1C(=O)NC(C)(C)C [Example 602] with human RXFP1 (Homo sapiens).
Result: 100
